Tested on: KRAS PDC multicell spheroid viability
Assay: Anticancer human tumor 521955-158-R6-J3-PDC patient-derived pancreatic carcinoma cell line growth inhibition [KRAS2]
Details: second compound 1 µM; first compound 0.0316 µM; stronger effect = lower value
Excerpt: Multicellular complex tumor spheroid response to RAS pathway inhibitors in combination with a targeted agents in patient-derived cell lines with oncogenic KRAS variants from multiple cancer types A high-throughput screen of multi-cell type tumor spheroids was designed to identify active combinations of targeted small molecules and KRAS pathway inhibitors. […] Compounds. […] If the clinical Cmax for an agent had not been determined, the highest concentration tested was 10 microM. […]
hey, just use T if measured viability, T/C is less than 80%, otherwise F

Compound	Class Name
CCNC(=O)CC1N=C(c2ccc(Cl)cc2)c2cc(OC)ccc2-n2c(C)nnc21 (configuration not stated) + C=CC(=O)N1CCN(c2nc(OCC3CCCN3C)nc3c2CCN(c2cccc4cccc(C)c24)C3)CC1CC#N	F

Lab note: confirm whether the reported viability, T/C for this compound is below 80%, equality not counting. compound: O=C(c1cc(Cc2n[nH]c(=O)c3ccccc23)ccc1F)N1CCN(C(=O)C2CC2)CC1 + C=CC(=O)N1CCN(c2nc(OCC3CCCN3C)nc3c2CCN(c2cccc4cccc(C)c24)C3)CC1CC#N F

Lab note: confirm whether the reported viability, T/C for this compound is below 80%, equality not counting. compound: CN(C)C/C=C/C(=O)Nc1cc2c(Nc3ccc(F)c(Cl)c3)ncnc2cc1O[C@H]1CCOC1 + C=CC(=O)N1CCN(c2nc(=O)n(-c3c(C)ccnc3C(C)C)c3nc(-c4c(O)cccc4F)c(F)cc23)C(C)C1 T

Lab note: confirm whether the reported viability, T/C for this compound is below 80%, equality not counting. compound: Cn1ncnc1[C@H]1c2n[nH]c(=O)c3cc(F)cc(c23)N[C@@H]1c1ccc(F)cc1 + C=CC(=O)N1CCN(c2nc(=O)n(-c3c(C)ccnc3C(C)C)c3nc(-c4c(O)cccc4F)c(F)cc23)C(C)C1 F

Lab note: confirm whether the reported viability, T/C for this compound is below 80%, equality not counting. compound: CCN1CCN(Cc2ccc(Nc3ncc(F)c(-c4cc(F)c5nc(C)n(C(C)C)c5c4)n3)nc2)CC1 + CNCc1ccccc1-c1csc(C(C)Nc2nc(C)nc3cc(OC)c(OC)cc23)c1 T

Lab note: confirm whether the reported viability, T/C for this compound is below 80%, equality not counting. compound: CC1COCCN1c1cc(-c2ccnn2C)c2ccnc(-c3ccn[nH]3)c2n1 (configuration not stated) + CC1OCC2(CCN(c3cnc(Sc4ccnc(N)c4Cl)c(N)n3)CC2)C1N F

* * *

tested on: KRAS PDC multicell spheroid viability; experiment: Anticancer human tumor 521955-158-R6-J3-PDC cell line growth inhibition [KRAS2]; conditions: second compound 3.16 µM; first compound 0.1 µM; stronger effect = lower value;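 further: drug exposure lasted seven days; 100% = DMSO vehicle wells and lower means fewer viable cells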
Measured Metric: viability, T/C (%)
Could you give me the number in %? Just the number is fine.

Molecule	viability, T/C (%)
COc1cc(Nc2ncc3c(n2)-c2ccc(Cl)cc2C(c2c(F)cccc2OC)=NC3)ccc1C(=O)O + CNCc1ccccc1-c1csc(C(C)Nc2nc(C)nc3cc(OC)c(OC)cc23)c1	0.8
CCNC(=O)CC1N=C(c2ccc(Cl)cc2)c2cc(OC)ccc2-n2c(C)nnc21 (stereo not drawn) + COc1cc2nc(C)nc(NC(C)c3cc(N)cc(C(F)(F)F)c3)c2cc1OC1CCOC1	71.3
CC(=O)OC12COC1CC(O)C1(C)C(=O)C(O)C3=C(C)C(OC(=O)C(O)C(NC(=O)OC(C)(C)C)c4ccccc4)CC(O)(C(OC(=O)c4ccccc4)C21)C3(C)C (stereo not drawn) + COc1cc2nc(C)nc(NC(C)c3cc(N)cc(C(F)(F)F)c3)c2cc1OC1CCOC1	55.7
CC1(C)CCC(CN2CCN(c3ccc(C(=O)NS(=O)(=O)c4ccc(NCC5CCOCC5)c([N+](=O)[O-])c4)c(Oc4cnc5[nH]ccc5c4)c3)CC2)=C(c2ccc(Cl)cc2)C1 + CC1OCC2(CCN(c3cnc(Sc4ccnc(N)c4Cl)c(N)n3)CC2)C1N	120

KRAS PDC multicell spheroid viability / viability, T/C / O=C(c1cc(Cc2n[nH]c(=O)c3ccccc23)ccc1F)N1CCN(C(=O)C2CC2)CC1 + C=CC(=O)N1CCN(c2nc(OCC3CCCN3C)nc3c2CCN(c2cccc4cccc(C)c24)C3)CC1CC#N : value? 31.2

KRAS PDC multicell spheroid viability / viability, T/C / CN(C)C/C=C/C(=O)Nc1cc2c(Nc3ccc(F)c(Cl)c3)ncnc2cc1O[C@H]1CCOC1 + C=CC(=O)N1CCN(c2nc(=O)n(-c3c(C)ccnc3C(C)C)c3nc(-c4c(O)cccc4F)c(F)cc23)C(C)C1 : value? 69.7

KRAS PDC multicell spheroid viability / viability, T/C / CN(C)C/C=C/C(=O)Nc1cc2c(Nc3ccc(F)c(Cl)c3)ncnc2cc1O[C@H]1CCOC1 + COc1cc2nc(C)nc(NC(C)c3cc(N)cc(C(F)(F)F)c3)c2cc1OC1CCOC1 : value? 45.5

KRAS PDC multicell spheroid viability / viability, T/C / CC1COCCN1c1cc(-c2ccnn2C)c2ccnc(-c3ccn[nH]3)c2n1 (stereo not drawn) + CC1OCC2(CCN(c3cnc(Sc4ccnc(N)c4Cl)c(N)n3)CC2)C1N : value? 99.9
